# EXPERIMENT: Permeability of compound assessed as compound recovery incubated for 14 to 18 hrs by PAMPA
# Format: ADME
# CONDITION INFO: time 14-18 hrs, read-out: Drug recovery
ASSAY READOUT: recovery (%)
Kindly provide the numeric value in % only, without the unit symbol.

Consider the following illustrative entries.
[
  {
    "SUBSTANCE SMILES": "CCCCC[C@H](NC(=O)[C@@H](C)N(C)C(=O)[C@H](CCCCC)NC(=O)[C@@H](C)N(C)C(=O)[C@H](CCCCC)NC(=O)[C@@H](C)N(C)C(=O)[C@H](CCCCC)OC(=O)[C@@H](C)N(C)C(=O)OC(C)(C)C)C(=O)OCc1ccccc1",
    "EXPERIMENTAL VALUE": 89
  },
  {
    "SUBSTANCE SMILES": "CCCCC[C@H](NC(=O)[C@@H](C)N(C)C(=O)[C@H](CCCCC)NC(=O)[C@@H](C)N(C)C(=O)[C@H](CCCCC)OC(=O)[C@@H](C)N(C)C(=O)[C@H](CCCCC)OC(=O)[C@@H](C)N(C)C(=O)OC(C)(C)C)C(=O)OCc1ccccc1",
    "EXPERIMENTAL VALUE": 92
  }
]

Turning to the following compound.
GET /value?item= CCCCC[C@H](NC(=O)[C@@H](C)N(C)C(=O)[C@H](CCCCC)OC(=O)[C@@H](C)N(C)C(=O)[C@H](CCCCC)OC(=O)[C@@H](C)N(C)C(=O)[C@H](CCCCC)OC(=O)[C@@H](C)N(C)C(=O)OC(C)(C)C)C(=O)OCc1ccccc1 &field=recovery returns 93
